- Run Description: IOSE-T80 ovarian epithelial cell cytotoxicity, dose response, cytotoxicity control for PAX8 inhibitor project, plate reader, dry powder samples (AID 743045);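 also: 0% = neutral control median and -100% = positive control median; more negative values mean more cell killing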
- Conditions Used: IOSE-T80 ovarian epithelial cells; series mostly up to 35 µM
Results with a measured potency or affinity are listed apart. Calls of active or inactive are those of the source. No rule for the calls is given here.

Smiles Entry	activity change, negative = cytotoxicity
Cc1ccc(S(=O)(=O)Nc2ccc3c(c2)C(=O)N([C@H](C)CO)C[C@@H](C)[C@H](CN(C)S(=O)(=O)c2ccc(Cl)cc2)OCCCC[C@H](C)O3)cc1	inactive
O=C(C[C@@H]1CC[C@H]2[C@@H](COC[C@H](O)CN2C(=O)Nc2ccc(Cl)c(Cl)c2)O1)NCc1ccc(Cl)cc1	inactive
C[C@H]1CN([C@@H](C)CO)C(=O)c2cccc(NC(=O)Nc3ccc(F)cc3)c2O[C@H]1CN(C)C(=O)Nc1ccc(C(F)(F)F)cc1	inactive

----------
z-score: recorded values
- Run Description: CREB reporter modulators under forskolin, primary screen, cell-based, PC12, CRE-LacZ reporter, forskolin-stimulated (AID 1146);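 also: PC12 cells with 6xCRE LacZ reporter stimulated by forskolin 10 µM; beta-galactosidase reporter signal reflecting CREB driven transcription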
- Conditions Used: luminescence, 4.5 h, higher = more signal, called active from +8 up or from −8 down
The source made the active and inactive calls.
Measurement Kind: z-score

Molecule	Measurement Kind	Reported Result
CC(=O)NCCCC[C@@H]1NC(=O)[C@@H]2C[C@H](C(=O)O)[C@H](c3cccc(OCCO)c3)N2C1=O	z-score	-0.741 (inactive)
COC(=O)[C@@]1(CCC(=O)OC(C)(C)C)COC(c2ccc(OCCCO)cc2)=N1	z-score	-1.14 (inactive)
O=c1n(-c2ccccc2)c(=O)n2n1CC(COc1ccccc1)=C1[C@@H](CCc3ccccc3)OB(O)C[C@@H]12	z-score	-1.67 (inactive)
C=CCOC(=O)[C@H]1[C@@H]2C(=O)O[C@@H](c3ccccc3)[C@@H](c3ccccc3)N2[C@@H](c2ccc(OCCOC(=O)[C@H]3C[C@H]4C(=O)N5CCC[C@H]5C(=O)N4[C@H]3c3cccc(OCCO)c3)cc2)[C@]12C(=O)Nc1ccccc12	z-score	-0.378 (inactive)
COCCOC(=O)N1C(=O)[C@@]2(c3cc(C#CCCO)ccc31)[C@H](c1ccccc1OCCO)N1[C@H](c3ccccc3)[C@H](c3ccccc3)OC(=O)[C@H]1[C@@H]2C(=O)NC[C@H](O)c1ccccc1	z-score	-1.44 (inactive)
CCN(CC)c1ccc(N2CC=CC34O[C@@H]5C=CCOC(=O)[C@@H]5[C@H]3C(=O)N(C(CO)C(C)C)[C@@H]4C2=O)cc1 (stereo partly drawn)	z-score	0.6 (inactive)
C=CC[C@]1(C(=O)N(C)C)N=C(c2ccc(OCCCO)cc2)O[C@H]1c1ccccc1CN=[N+]=[N-]	z-score	-1.16 (inactive)
CC(C)[Si](C#C[Si](C(C)C)(C(C)C)C(C)C)(O[C@H](C)c1cn([C@H](C)c2ccccc2)nn1)C(C)C	z-score	-1.59 (inactive)
C=C(/C(=C/C[C@H](OC(=O)c1ccncc1)c1cccc(OCCO)c1)c1cc(C(=O)OC)ccc1OC)C(C)C	z-score	-0.669 (inactive)
O=C1N(CCS(=O)(=O)c2ccccc2)Cc2ccccc2[C@@H]2OC(c3ccc(OCCCO)cc3)=N[C@]12Cc1ccccc1	z-score	-1.09 (inactive)
C=CCN1C(=O)[C@@]2(O[C@@H](CCn3cc(CCO)nn3)[C@H]([Si](C)(C)c3ccc(OC)cc3)[C@H]2C)c2cc(N3C(=O)c4cccc5cccc3c45)ccc21	z-score	-3.77 (inactive)
COCCCNC(=O)[C@@]1(CCS(=O)(=O)c2ccccc2)N=C(c2ccc(OCCCO)cc2)O[C@H]1c1ccccc1CN=[N+]=[N-]	z-score	-1.7 (inactive)
O=C1O[C@@H](c2ccccc2)[C@@H](c2ccccc2)N2[C@@H](c3ccc(OCCO)cc3)[C@]3(C(=O)Nc4ccc(C#CC5(O)CCCCCC5)cc43)[C@@H](C(=O)NC[C@H](O)c3ccccc3)[C@H]12	z-score	-1.71 (inactive)
